Give composite z-score for every item shown.
# Tested on: PRMT1 (protein arginine N-methyltransferase 1)
# ASSAY TEXT: PRMT1 binders on small-molecule microarrays, primary screen, biochemical, small-molecule microarray, 635 nm fluorescence (AID 1088);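 further: binding of Prmt1 protein to compounds spotted on small-molecule microarray slides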
# STATED CONDITIONS: small-molecule microarray binding, higher = more signal
// no unit string in output, number only

Can you share its composite z-score? I mean this molecule: CO[C@H]1COC(=O)[C@@H]2CCCN2C(=O)CC=C[C@@H](C)[C@H](OC)COC(=O)CC=C[C@@H]1C 1.54

Can you share its composite z-score? I mean this molecule: CC(CCC(=O)OC[C@H]1O[C@H](C#Cc2ccccc2)C=C[C@@H]1Oc1ccc(C)cc1)=NO[C@@H](C)c1cn([C@H](CO)Cc2ccccc2)nn1 0.668

Can you share its composite z-score? I mean this molecule: O=C1O[C@@H](c2ccccc2)[C@@H](c2ccccc2)N2[C@@H](c3ccc(OCCO)cc3)[C@]3(C(=O)Nc4ccc(C#CCCO)cc43)[C@@H](C(=O)N3CCCCCCC3)[C@H]12 1.54

Can you share its composite z-score? I mean this molecule: COC(=O)[C@]1(CO)N=C(c2ccc(OCCCO)cc2)O[C@@H]1c1ccccc1N=[N+]=[N-] 1.53

Can you share its composite z-score? I mean this molecule: CC(C)CON=C1C[C@@H](O)[C@@H](O)[C@@H]2[C@@H]3C(=O)N(C[C@@H]4CCCO4)C(=O)[C@@H]3CC[C@H]12 0.976

Can you share its composite z-score? I mean this molecule: CCCNC(=O)[C@@H]1c2ccccc2C(=O)N(Cc2ccccc2Cl)[C@H]1c1ccc(CO)cc1 1.55

Can you share its composite z-score? I mean this molecule: C=CCOC(=O)[C@H]1[C@@H]2C(=O)O[C@@H](c3ccccc3)[C@@H](c3ccccc3)N2[C@@H](c2ccc(OCCOC(=O)[C@H]3C[C@H]4C(=O)N[C@@H](Cc5ccccc5)C(=O)N4[C@H]3c3ccc(O)cc3)cc2)[C@]12C(=O)Nc1ccccc12 1.55

Can you share its composite z-score? I mean this molecule: CO[C@@H]1COC(=O)CCC[C@@H](C)[C@H](OC)COC(=O)[C@H](Cc2ccccc2)NC(=O)CC=C[C@H]1C -0.256

Can you share its composite z-score? I mean this molecule: CCOC(=O)[C@H](Cc1ccccc1)NC(=O)CCC1CC(OC(=O)NCc2ccc3c(c2)OCO3)CC2(CCCC(COC(=O)NCC(c3ccccc3)c3ccccc3)O2)O1 (some centres not stated) 1.16

Can you share its composite z-score? I mean this molecule: COC(=O)CC1OC1[C@H](C)[C@@H](OC)C(C)C (some centres not stated) 0.12

Can you share its composite z-score? I mean this molecule: COCCOC(=O)N1C(=O)[C@@]2(c3ccccc31)[C@H](C(N)=O)[C@H]1C(=O)O[C@H](c3ccccc3)[C@H](c3ccccc3)N1[C@@H]2c1ccccc1OCCO 1.53

Can you share its composite z-score? I mean this molecule: O=C(CS)NCCCCCNC(=O)[C@H]1C[C@H]2C(=O)N3CCC[C@H]3C(=O)N2[C@H]1c1cccc(OCCO)c1 1.53

Can you share its composite z-score? I mean this molecule: O=C1[C@H]2[C@H]3[C@H](O)[C@H](O)CC(=NO[C@@H]4O[C@H](CO)[C@@H](O)[C@H](O)[C@H]4O)[C@@H]3CC[C@H]2C(=O)N1Cc1ccccc1 0.346

Can you share its composite z-score? I mean this molecule: CC(C)NC(=O)[C@@]1(C)c2ccccc2C(=O)N(Cc2cc(F)cc(C(F)(F)F)c2)[C@H]1c1ccc(CO)cc1 0.86

Can you share its composite z-score? I mean this molecule: C=CC[C@@H]1C=C[C@H](ON=C(C)CCN2CCc3nc(CC)c(CC)cc3C2)[C@@H](CO)O1 1.21

Can you share its composite z-score? I mean this molecule: C[C@H]1Cc2c(-c3ccccc3)nc3c(c2CO1)CN(CCOc1ccccc1)CC3 1.56

Can you share its composite z-score? I mean this molecule: CC(C)=C1C(=O)C(c2ccccc2)=C2CN3C(=O)N(CCc4ccccc4)C(=O)[C@]3(Cc3ccc(F)cc3)[C@H]21 1.11

Can you share its composite z-score? I mean this molecule: CCOC(=O)NN=C1C[C@@H](O)[C@@H](O)[C@@H]2[C@@H]3C(=O)N(CC)C(=O)[C@@H]3CC[C@@H]12 0.268

Can you share its composite z-score? I mean this molecule: CCCNC(=O)OC[C@H]1O[C@H](CCON=C2[C@H]3CCn4c(=O)n(-c5ccccc5)c(=O)n4[C@H]3[C@H](O)[C@@H]3O[C@H]23)C=C[C@@H]1Oc1ccc(OC)cc1 0.615

Can you share its composite z-score? I mean this molecule: O=C1[C@H]2[C@H]3[C@H](O)[C@H](O)CC(=NO[C@@H]4O[C@H](CO)[C@@H](O)[C@H](O)[C@H]4O)[C@H]3CC[C@H]2C(=O)N1Cc1ccc2c(c1)OCO2 0.661

Can you share its composite z-score? I mean this molecule: COc1ccc(O[C@H]2C=C[C@@H](c3ccccc3)O[C@@H]2COC(=O)CCC(C)=NOCC[C@@H]2C=C[C@H](OC(C)=O)[C@@H](COC(C)=O)O2)cc1 0.135

Can you share its composite z-score? I mean this molecule: C=COC[C@H]1CN2[C@@H](CC[C@@H](C)[C@@H]2c2ccc(Br)cc2)C(=O)O1 1.4

Can you share its composite z-score? I mean this molecule: C#CCCCON=C1C[C@@H](O)[C@@H](O)[C@@H]2[C@@H]3C(=O)N(c4cccc(Oc5ccccc5)c4)C(=O)[C@@H]3CC[C@@H]12 0.678

Can you share its composite z-score? I mean this molecule: C#CCCCON=C1C[C@@H](O)[C@@H](O)[C@@H]2[C@@H]3C(=O)N(CCC(=O)OCC)C(=O)[C@@H]3CC[C@@H]12 -0.683

Can you share its composite z-score? I mean this molecule: COc1ccc(O[C@H]2C=C[C@@H](c3ccccc3)O[C@@H]2COC(=O)CCC(C)=NOC[C@@H](C)[C@H](OCc2ccccc2)C(C)C)cc1 -0.548

Can you share its composite z-score? I mean this molecule: COc1cccc([C@@H]2Oc3ccc(Br)cc3C(=O)[C@H]2O)c1 -0.366

Can you share its composite z-score? I mean this molecule: COCCCNC(=O)[C@]1(CCC(=O)OC(C)(C)C)N=C(c2ccc(OCCCO)cc2)O[C@@H]1c1ccccc1N=[N+]=[N-] 1.54
